target: human ether-à-go-go-related gene (hERG) potassium channel (human); experiment: primary screen, population patch clamp on CHO cells stably expressing hERG; higher = less effect of the substance;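 further: peak tail current of the secondary pulse compared with the same well before compound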
In all, about 310,000 compounds went through this assay and about 14,000 (4.5%) showed an effect of 50% or more. The effect is printed as a negative number. Many of the other results were omitted from the sample, so strong results are more common in it than they were.
VALUE_KIND: hERG current change (%, negative = inhibition) at 10uM (%)
Write the number in % without appending the unit.

The examples below pair each entry with its known result.
- COMPOUND: "O=C(C1CCN(Cc2cn[nH]c2-c2ccc(F)cc2F)CC1)N1CCOCC1"
  RECORDED_RESULT: 8.72
- COMPOUND: "O=C(c1ccc(F)cc1)C1CCN(Cc2cn[nH]c2-c2ccc(F)cc2)CC1"
  RECORDED_RESULT: -75.2
- COMPOUND: "COc1ccc(-c2[nH]ncc2CN2CCC(C(=O)c3ccc(F)cc3)CC2)cc1"
  RECORDED_RESULT: -76.2

Give its hERG current change (%, negative = inhibition) at 10uM value. Item: `O=C(c1ccc(F)cc1)C1CCN(Cc2cn[nH]c2-c2ccccc2)CC1` -78.8

Find the recorded hERG current change (%, negative = inhibition) at 10uM belonging to O=C(Cc1cccc2ccccc12)NC(NC(=S)Nc1ccccc1Cl)C(Cl)(Cl)Cl (centres unmarked) and report it. 11.7

* * *

Reported hERG current change (%, negative = inhibition) at 10uM is given for each of the following compounds.
target: human ether-à-go-go-related gene (hERG) potassium channel (human); test: primary screen, population patch clamp on CHO cells stably expressing hERG; higher = less effect of the substance;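 further: peak tail current of the secondary pulse compared with the same well before compound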
The campaign covered roughly 310,000 compounds. About 14,000 (4.5%) showed an effect of 50% or more. Effects have a minus sign here. Shown is part of a subset that was picked to be rich in strong results.
Express your answer in %, writing the number without its unit.

- COMPOUND: "C(=C\\c1ccccc1)/C=N/Nc1ccc2nncn2n1"
  RECORDED_RESULT: -19.7
- COMPOUND: "CCOC(=O)C1CCN(c2c(N3CCCC(C(=O)OCC)C3)c(=O)c2=O)CC1 (stereo not drawn)"
  RECORDED_RESULT: -22.8
- COMPOUND: "CCOC(=O)N1CCC(n2c(SCC(=O)NCCC3=CCCCC3)nc3ccccc3c2=O)CC1"
  RECORDED_RESULT: -59.3
- COMPOUND: "Cc1cc(C)c(OCC(=O)Nc2cccc(O)c2)cc1C"
  RECORDED_RESULT: 10.9
- COMPOUND: "CN1CCN(c2cn[nH]c(=O)c2Cl)CC1"
  RECORDED_RESULT: 15.4
- COMPOUND: "Cc1ccc(S(=O)(=O)CCC(=O)NCc2ccc(Cl)cc2)cc1"
  RECORDED_RESULT: -3.96
- COMPOUND: "Cl.Cn1c2c(c3ccccc31)CCN1CCC[C@]21c1ccccc1"
  RECORDED_RESULT: -60.7
- COMPOUND: "Cc1[nH]n(-c2ccccc2)c(=O)c1N=Nc1ccc(C(=O)O)cc1"
  RECORDED_RESULT: 25.7
- COMPOUND: "CCOC(=O)C1CCCN(c2c(N3CCN(C4CCCCC4)CC3)c(=O)c2=O)C1 (stereo not drawn)"
  RECORDED_RESULT: -55.8
- COMPOUND: "CCC(C)NC(=S)Nc1ccc(C(=O)OC)cc1 (stereo not drawn)"
  RECORDED_RESULT: 15

Entry `Cc1c(N(C)C)c(=O)n(-c2ccccc2)n1C` : reported hERG current change (%, negative = inhibition) at 10uM = ? 19.1

For the compound COc1ccc(S(=O)(=O)Cc2ccc(C(=O)NC3CCC(C)CC3)o2)cc1 (stereo not drawn) , what hERG current change (%, negative = inhibition) at 10uM is on record? -15.8

# get_value(readout='hERG current change (%, negative = inhibition) at 10uM', item= Cc1[nH]c2ccccc2c1C(c1ccccn1)N1CCC(C(N)=O)CC1 (stereo not drawn) ) -11.4

Requested field: hERG current change (%, negative = inhibition) at 10uM. Item: `O=C(Nc1cccc2ncccc12)c1cccc(F)c1` -11.1

* * *

Entries and their hERG current change (%, negative = inhibition) at 10uM values follow.
molecular target: human ether-à-go-go-related gene (hERG) potassium channel (human); assay: primary screen, population patch clamp on CHO cells stably expressing hERG; higher = less effect of the substance;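 further: peak tail current of the secondary pulse compared with the same well before compound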
Hit rate of the full screen: of about 310,000 compounds, about 14,000 (4.5%) showed an effect of 50% or more. The effect is printed as a negative number. What follows is part of a selection rich in strong results, with near analogues and random picks from the rest.
// note: answer is a bare numeric in %

- MOLECULE: "CCS(=O)(=O)N1CCC(C(=O)c2ccc(Cl)cc2)CC1"
  SYSTEM_UNDER_TEST: "human ether-à-go-go-related gene (hERG) potassium channel (human)"
  UNIT_OF_MEASUREMENT: "%"
  RECORDED_RESULT: -47.3
- MOLECULE: "O=C(CSc1nnc(-c2ccccc2)c(-c2ccccc2)n1)NC1CCS(=O)(=O)C1 (centres unmarked)"
  SYSTEM_UNDER_TEST: "human ether-à-go-go-related gene (hERG) potassium channel (human)"
  UNIT_OF_MEASUREMENT: "%"
  RECORDED_RESULT: 17.3
- MOLECULE: "CCn1cc2nc(SCC(=O)Nc3ccc(OC)cc3OC)n(Cc3ccc(OC)cc3)c(=O)c2n1"
  SYSTEM_UNDER_TEST: "human ether-à-go-go-related gene (hERG) potassium channel (human)"
  UNIT_OF_MEASUREMENT: "%"
  RECORDED_RESULT: 1.42
- MOLECULE: "Cc1ccc(C(=O)NCC(=O)NCC(=O)OCC(=O)c2ccc(Br)cc2)cc1"
  SYSTEM_UNDER_TEST: "human ether-à-go-go-related gene (hERG) potassium channel (human)"
  UNIT_OF_MEASUREMENT: "%"
  RECORDED_RESULT: 7.3

Which hERG current change (%, negative = inhibition) at 10uM is reported for this molecule? `Cc1cc(C)c2cc(C#N)c(NCCCNC(=O)CCC(=O)O)nc2c1` 12.2

* * *

Reported hERG current change (%, negative = inhibition) at 10uM values for the following compounds.
biological target: human ether-à-go-go-related gene (hERG) potassium channel (human, UniProt Q12809); test: primary screen, population patch clamp on CHO cells stably expressing hERG; higher = less effect of the substance;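 further: peak tail current of the secondary pulse compared with the same well before compound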
Sequence (Q12809 whole entry, looked up): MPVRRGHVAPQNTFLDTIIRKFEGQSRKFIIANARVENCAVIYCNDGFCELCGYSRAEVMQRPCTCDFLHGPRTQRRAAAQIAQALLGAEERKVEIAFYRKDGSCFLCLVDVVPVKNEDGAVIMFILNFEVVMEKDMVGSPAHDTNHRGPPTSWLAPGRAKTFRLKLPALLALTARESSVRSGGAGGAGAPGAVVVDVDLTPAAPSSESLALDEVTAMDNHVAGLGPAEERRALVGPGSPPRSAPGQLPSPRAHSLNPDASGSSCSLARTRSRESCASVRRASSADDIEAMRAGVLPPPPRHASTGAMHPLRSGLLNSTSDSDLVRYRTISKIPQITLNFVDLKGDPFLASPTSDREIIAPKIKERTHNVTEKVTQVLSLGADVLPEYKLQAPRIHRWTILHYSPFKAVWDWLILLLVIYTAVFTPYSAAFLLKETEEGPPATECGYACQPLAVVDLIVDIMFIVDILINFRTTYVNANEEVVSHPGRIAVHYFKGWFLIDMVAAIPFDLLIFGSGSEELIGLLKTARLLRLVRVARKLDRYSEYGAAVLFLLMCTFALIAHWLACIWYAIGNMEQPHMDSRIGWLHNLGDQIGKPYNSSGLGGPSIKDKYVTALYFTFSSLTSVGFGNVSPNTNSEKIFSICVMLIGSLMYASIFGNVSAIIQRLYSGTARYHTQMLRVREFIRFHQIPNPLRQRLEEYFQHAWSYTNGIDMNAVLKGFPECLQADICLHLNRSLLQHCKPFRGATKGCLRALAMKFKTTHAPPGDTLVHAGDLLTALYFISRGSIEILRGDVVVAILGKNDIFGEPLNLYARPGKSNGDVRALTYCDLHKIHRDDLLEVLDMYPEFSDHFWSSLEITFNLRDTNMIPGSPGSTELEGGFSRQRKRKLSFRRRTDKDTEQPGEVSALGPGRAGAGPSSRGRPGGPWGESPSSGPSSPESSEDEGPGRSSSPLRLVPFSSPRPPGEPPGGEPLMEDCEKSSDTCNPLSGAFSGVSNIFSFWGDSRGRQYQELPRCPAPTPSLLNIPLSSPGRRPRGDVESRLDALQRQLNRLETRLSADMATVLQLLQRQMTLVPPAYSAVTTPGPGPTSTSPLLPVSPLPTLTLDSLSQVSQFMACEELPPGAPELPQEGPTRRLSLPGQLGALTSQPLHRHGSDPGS
Out of some 310,000 compounds screened, about 14,000 (4.5%) showed an effect of 50% or more. The effect is printed as a negative number. The list comes from a sample in which strong results are over-represented; it also holds close analogues and randomly drawn compounds.
I only need the number, in %, no unit after it.

Study these solved cases before continuing.
- COMPOUND: "O=C(O)CCCC(=O)Nc1ccc(Cl)cc1"
  RECORDED_RESULT: 21.6
- COMPOUND: "c1ccc(Cn2nc(-c3ccccc3)nc2-c2ccccc2)cc1"
  RECORDED_RESULT: -2.5
- COMPOUND: "CCC(C)NC(=O)COC(=O)c1cccnc1Nc1ccccc1F (centres unmarked)"
  RECORDED_RESULT: 8.21
- COMPOUND: "OCCC1CN(Cc2cnc(N3CCCC3)s2)CCN1C1CCCC1 (centres unmarked)"
  RECORDED_RESULT: -7.38
- COMPOUND: "COc1ccc(NC(=O)C2CC2)cc1-n1cnnn1"
  RECORDED_RESULT: 5.86
- COMPOUND: "OCC1(CCCc2ccccc2)CCN(Cc2cnc(N3CCOCC3)s2)CC1"
  RECORDED_RESULT: -58.3

Can you look up hERG current change (%, negative = inhibition) at 10uM on human ether-à-go-go-related gene (hERG) potassium channel (human, UniProt Q12809) for `Clc1cccc(CN2CCN(c3nc4nonc4nc3NC3CC3)CC2)c1` ? -65.4

Enter reported hERG current change (%, negative = inhibition) at 10uM observed with human ether-à-go-go-related gene (hERG) potassium channel (human, UniProt Q12809) for `Cc1cccc(CN2CCN(c3nc4nonc4nc3NC3CC3)CC2)c1` -4.44

Please provide the recorded hERG current change (%, negative = inhibition) at 10uM for `COc1cccc(CC2(CO)CCN(Cc3cnc(N4CCOCC4)s3)CC2)c1` , tested on human ether-à-go-go-related gene (hERG) potassium channel (human, UniProt Q12809). -54.7

For human ether-à-go-go-related gene (hERG) potassium channel (human, UniProt Q12809), provide hERG current change (%, negative = inhibition) at 10uM of `c1ccc(N2CCN(Cc3cnc(N4CCOCC4)s3)CC2)cc1` please. 29.4

So what hERG current change (%, negative = inhibition) at 10uM did `COc1ccc([N+](=O)[O-])cc1N(CC(=O)O)S(C)(=O)=O` get with human ether-à-go-go-related gene (hERG) potassium channel (human, UniProt Q12809)? 13.7
